system: HDAC; assay: Homogeneous cellular histone deacetylase assay, K562; assay type: cell-based, human; settings: Supplementary Table 2; NA = not active up to highest concentration tested (100 μM); >100 = IC50 not reached at 100 μM; read-out: IC50-HDAC K562
pIC50: −log10 of the molar value.
Entries and their pIC50

Worked set:
> print(dat)
                                   compound  measure.name  data.value
1  COc1ccc2c(NC3CCN(C)CC3)nc(NCCNC(=O)CCCC(=O)NO)nc2c1 [Compound 16a]         pIC50      < 4.00
2  COc1ccc2c(NCCNC(=O)CCCCCC(=O)NO)nc(N3CCCN(C)CC3)nc2c1 [Compound 22]         pIC50      < 4.00
3  COc1ccc2c(NC3CCN(Cc4ccccc4)CC3)nc(NCCNC(=O)CCCC(=O)NO)nc2c1 [Compound 16]         pIC50      < 4.00
4  COc1ccc2c(NC3CCN(C)CC3)nc(NCCNC(=O)CCCCC(=O)NO)nc2c1 [Compound 15a]         pIC50      < 4.00
5  COc1ccc2c(NCCNC(=O)CCCCCCC(=O)NO)nc(N3CCCN(C)CC3)nc2c1 [Compound 21]         pIC50      < 4.00
6  COc1cc2nc(N3CCCN(C)CC3)nc(NC3CCN(C(=O)CCCCCCC(=O)NO)CC3)c2cc1OC [Compound 19]         pIC50      < 4.00
7  COc1ccc2c(NC3CCN(Cc4ccccc4)CC3)nc(NCCNC(=O)CCCCC(=O)NO)nc2c1 [Compound 15]         pIC50      < 4.00

Next:
Item under review: COc1cc2nc(N3CCCN(C)CC3)nc(NC3CCN(C(=O)CCCCCC(=O)NO)CC3)c2cc1OC [Compound 20] . Reported pIC50?
< 4.00
